biological target: EPHA8 (Homo sapiens); construct: purchased Eurofins DiscoverX KINOMEscan (scanTK); experiment: KINOMEscan ScanTK; format: binding; settings: @1000nM
Sequence (P29322 28-1005): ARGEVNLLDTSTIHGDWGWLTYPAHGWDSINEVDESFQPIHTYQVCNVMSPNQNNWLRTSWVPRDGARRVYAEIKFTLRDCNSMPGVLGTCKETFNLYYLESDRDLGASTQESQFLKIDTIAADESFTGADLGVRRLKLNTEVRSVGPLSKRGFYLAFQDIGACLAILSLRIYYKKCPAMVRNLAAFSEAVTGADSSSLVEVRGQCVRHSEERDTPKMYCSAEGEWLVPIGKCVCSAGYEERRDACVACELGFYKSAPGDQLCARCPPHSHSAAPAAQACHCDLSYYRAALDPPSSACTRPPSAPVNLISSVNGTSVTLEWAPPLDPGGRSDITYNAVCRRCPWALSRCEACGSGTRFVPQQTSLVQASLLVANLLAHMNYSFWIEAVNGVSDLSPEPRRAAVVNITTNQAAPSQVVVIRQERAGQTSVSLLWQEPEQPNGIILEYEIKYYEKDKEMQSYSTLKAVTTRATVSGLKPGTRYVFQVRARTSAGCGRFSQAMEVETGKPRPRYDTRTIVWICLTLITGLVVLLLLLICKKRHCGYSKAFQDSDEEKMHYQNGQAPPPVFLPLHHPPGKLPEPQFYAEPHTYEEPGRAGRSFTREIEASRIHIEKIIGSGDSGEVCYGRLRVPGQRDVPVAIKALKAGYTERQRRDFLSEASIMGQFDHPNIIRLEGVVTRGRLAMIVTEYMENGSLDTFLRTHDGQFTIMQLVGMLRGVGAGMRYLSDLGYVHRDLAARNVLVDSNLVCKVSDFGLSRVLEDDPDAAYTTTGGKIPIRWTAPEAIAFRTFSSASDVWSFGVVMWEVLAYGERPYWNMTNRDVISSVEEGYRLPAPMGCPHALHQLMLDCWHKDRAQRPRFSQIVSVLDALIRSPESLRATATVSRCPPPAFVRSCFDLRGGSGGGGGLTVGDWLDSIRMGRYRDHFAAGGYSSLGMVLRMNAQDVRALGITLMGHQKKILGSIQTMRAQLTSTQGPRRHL
Recorded endpoint: difference in %Control versus compound Ib at 1 µM (%)
// note: answer is a bare numeric in %

Challenge: Quick one: difference in %Control versus compound Ib at 1 µM for COC(=O)c1cnc(S(C)(=O)=O)nc1N1CCCC(n2nc(-c3ccc(Oc4ccccc4)cc3)c3c(N)ncnc32)C1 (stereo not shown) [Compound 8b] ?
Response given: 8

Challenge: Ok, now CNC(=O)c1cnc(S(C)(=O)=O)nc1N1CCCC(n2nc(-c3ccc(Oc4ccccc4)cc3)c3c(N)ncnc32)C1 (stereo not shown) [Compound 8d]
Response given: 24

Challenge: Ok, now Cc1cnc(S(C)(=O)=O)nc1N1CCCC(n2nc(-c3ccc(Oc4ccccc4)cc3)c3c(N)ncnc32)C1 (stereo not shown) [Compound 8a]
Response given: 13

Challenge: Ok, now CCOC(=O)c1cnc(S(C)(=O)=O)nc1N1CCC[C@@H](n2nc(-c3ccc(Oc4ccccc4)cc3)c3c(N)ncnc32)C1 [Compound 8c]
Response given: 19

---

For each record, write down the corresponding remaining binding at 1 µM.
biological target: RET (Homo sapiens, UniProt P07949); construct: purchased Eurofins DiscoverX KINOMEscan (scanTK); assay: KINOMEscan ScanTK; type: binding; conditions: read-out: %Control @1000nM
Sequence (P07949 29-1114): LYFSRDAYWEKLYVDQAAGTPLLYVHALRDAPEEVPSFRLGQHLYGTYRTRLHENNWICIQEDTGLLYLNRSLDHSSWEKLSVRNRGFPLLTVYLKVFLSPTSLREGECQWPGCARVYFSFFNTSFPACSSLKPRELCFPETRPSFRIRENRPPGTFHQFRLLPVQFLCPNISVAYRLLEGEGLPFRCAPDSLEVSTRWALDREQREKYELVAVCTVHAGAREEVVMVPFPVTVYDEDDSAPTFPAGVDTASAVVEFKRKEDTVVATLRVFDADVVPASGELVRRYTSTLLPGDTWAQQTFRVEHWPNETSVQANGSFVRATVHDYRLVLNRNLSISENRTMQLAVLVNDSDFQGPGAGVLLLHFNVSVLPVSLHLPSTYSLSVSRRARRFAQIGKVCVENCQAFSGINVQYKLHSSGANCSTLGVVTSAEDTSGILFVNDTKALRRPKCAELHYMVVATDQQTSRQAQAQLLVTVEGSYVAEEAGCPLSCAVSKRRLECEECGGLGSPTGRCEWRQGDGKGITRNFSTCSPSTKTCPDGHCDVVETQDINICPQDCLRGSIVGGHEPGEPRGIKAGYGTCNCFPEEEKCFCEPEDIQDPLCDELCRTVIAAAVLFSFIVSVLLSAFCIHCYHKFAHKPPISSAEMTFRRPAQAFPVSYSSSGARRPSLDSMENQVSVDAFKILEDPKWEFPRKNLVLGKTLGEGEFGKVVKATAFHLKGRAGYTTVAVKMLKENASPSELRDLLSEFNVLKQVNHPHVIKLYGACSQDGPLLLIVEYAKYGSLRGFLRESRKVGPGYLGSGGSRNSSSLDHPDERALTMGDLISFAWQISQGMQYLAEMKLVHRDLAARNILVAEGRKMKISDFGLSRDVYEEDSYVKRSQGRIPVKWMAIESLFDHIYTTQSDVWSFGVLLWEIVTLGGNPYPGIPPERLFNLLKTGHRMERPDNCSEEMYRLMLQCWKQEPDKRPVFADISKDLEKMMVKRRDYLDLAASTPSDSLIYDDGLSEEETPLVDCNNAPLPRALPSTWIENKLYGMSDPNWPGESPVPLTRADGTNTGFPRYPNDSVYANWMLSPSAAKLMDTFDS
// note: answer is a bare numeric in %

Challenge: Quick one: remaining binding at 1 µM for CNC(=O)c1cnc(S(C)(=O)=O)nc1N1CCCC(n2nc(-c3ccc(Oc4ccccc4)cc3)c3c(N)ncnc32)C1 (centres unmarked) ?
Response given: 31

Challenge: Ok, now CCOC(=O)c1cnc(S(C)(=O)=O)nc1N1CCC[C@@H](n2nc(-c3ccc(Oc4ccccc4)cc3)c3c(N)ncnc32)C1
Response given: 84

Challenge: Ok, now Cc1cnc(S(C)(=O)=O)nc1N1CCCC(n2nc(-c3ccc(Oc4ccccc4)cc3)c3c(N)ncnc32)C1 (centres unmarked)
Response given: 56

Challenge: Ok, now C=CC(=O)N1CCC[C@@H](n2nc(-c3ccc(Oc4ccccc4)cc3)c3c(N)ncnc32)C1 [Compound 1g, Ibrutinib, reference compound]
Response given: 12

Challenge: Ok, now COC(=O)c1cnc(S(C)(=O)=O)nc1N1CCCC(n2nc(-c3ccc(Oc4ccccc4)cc3)c3c(N)ncnc32)C1 (centres unmarked)
Response given: 56

---

target: KIT(V559D,V654A) (Homo sapiens, UniProt P10721, V559D/V654A); construct: purchased Eurofins DiscoverX KINOMEscan (scanTK); test: KINOMEscan ScanTK; type: binding; conditions: @1000nM, read-out: %Control
Sequence (P10721 26-976 V559D/V654A): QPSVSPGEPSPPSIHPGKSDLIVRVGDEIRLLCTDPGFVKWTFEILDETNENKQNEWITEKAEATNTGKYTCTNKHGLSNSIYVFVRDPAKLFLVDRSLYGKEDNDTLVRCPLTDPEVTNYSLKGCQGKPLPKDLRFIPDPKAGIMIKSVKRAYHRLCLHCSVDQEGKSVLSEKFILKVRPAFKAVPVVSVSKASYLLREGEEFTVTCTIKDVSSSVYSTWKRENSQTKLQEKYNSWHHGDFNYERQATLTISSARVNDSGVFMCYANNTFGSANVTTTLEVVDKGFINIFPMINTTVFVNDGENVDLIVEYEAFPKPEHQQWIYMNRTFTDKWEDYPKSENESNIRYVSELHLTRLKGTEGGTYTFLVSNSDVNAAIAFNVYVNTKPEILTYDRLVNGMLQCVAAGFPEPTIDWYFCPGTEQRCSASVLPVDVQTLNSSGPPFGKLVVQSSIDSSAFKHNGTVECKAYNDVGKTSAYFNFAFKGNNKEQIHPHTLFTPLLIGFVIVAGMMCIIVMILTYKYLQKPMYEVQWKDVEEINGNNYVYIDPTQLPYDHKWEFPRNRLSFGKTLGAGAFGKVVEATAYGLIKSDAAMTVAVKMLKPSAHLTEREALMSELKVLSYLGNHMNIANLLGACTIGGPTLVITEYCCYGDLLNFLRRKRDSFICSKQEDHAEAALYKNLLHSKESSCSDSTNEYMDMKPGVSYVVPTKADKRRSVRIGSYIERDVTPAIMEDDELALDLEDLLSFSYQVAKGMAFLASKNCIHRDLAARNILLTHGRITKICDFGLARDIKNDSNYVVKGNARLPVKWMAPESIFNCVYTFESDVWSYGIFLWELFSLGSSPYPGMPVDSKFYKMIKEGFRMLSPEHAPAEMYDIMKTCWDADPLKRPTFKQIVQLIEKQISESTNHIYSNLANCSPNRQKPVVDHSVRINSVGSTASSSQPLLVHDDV
Recorded endpoint: remaining binding at 1 µM (%)
// note: answer is a bare numeric in %

Challenge: Quick one: remaining binding at 1 µM for COC(=O)c1cnc(S(C)(=O)=O)nc1N1CCCC(n2nc(-c3ccc(Oc4ccccc4)cc3)c3c(N)ncnc32)C1 (stereo not shown) ?
Response given: 86

Challenge: Ok, now CCOC(=O)c1cnc(S(C)(=O)=O)nc1N1CCC[C@@H](n2nc(-c3ccc(Oc4ccccc4)cc3)c3c(N)ncnc32)C1
Response given: 97

Challenge: Ok, now Cc1cnc(S(C)(=O)=O)nc1N1CCCC(n2nc(-c3ccc(Oc4ccccc4)cc3)c3c(N)ncnc32)C1 (stereo not shown)
Response given: 90

Challenge: Ok, now CNC(=O)c1cnc(S(C)(=O)=O)nc1N1CCCC(n2nc(-c3ccc(Oc4ccccc4)cc3)c3c(N)ncnc32)C1 (stereo not shown)
Response given: 94
